# tgt: human HSL (Homo sapiens, UniProt Q05469)
# Construct: generate a full length human HSL ORF with a 3′-His6 tag
# Sequence (Q05469 whole entry): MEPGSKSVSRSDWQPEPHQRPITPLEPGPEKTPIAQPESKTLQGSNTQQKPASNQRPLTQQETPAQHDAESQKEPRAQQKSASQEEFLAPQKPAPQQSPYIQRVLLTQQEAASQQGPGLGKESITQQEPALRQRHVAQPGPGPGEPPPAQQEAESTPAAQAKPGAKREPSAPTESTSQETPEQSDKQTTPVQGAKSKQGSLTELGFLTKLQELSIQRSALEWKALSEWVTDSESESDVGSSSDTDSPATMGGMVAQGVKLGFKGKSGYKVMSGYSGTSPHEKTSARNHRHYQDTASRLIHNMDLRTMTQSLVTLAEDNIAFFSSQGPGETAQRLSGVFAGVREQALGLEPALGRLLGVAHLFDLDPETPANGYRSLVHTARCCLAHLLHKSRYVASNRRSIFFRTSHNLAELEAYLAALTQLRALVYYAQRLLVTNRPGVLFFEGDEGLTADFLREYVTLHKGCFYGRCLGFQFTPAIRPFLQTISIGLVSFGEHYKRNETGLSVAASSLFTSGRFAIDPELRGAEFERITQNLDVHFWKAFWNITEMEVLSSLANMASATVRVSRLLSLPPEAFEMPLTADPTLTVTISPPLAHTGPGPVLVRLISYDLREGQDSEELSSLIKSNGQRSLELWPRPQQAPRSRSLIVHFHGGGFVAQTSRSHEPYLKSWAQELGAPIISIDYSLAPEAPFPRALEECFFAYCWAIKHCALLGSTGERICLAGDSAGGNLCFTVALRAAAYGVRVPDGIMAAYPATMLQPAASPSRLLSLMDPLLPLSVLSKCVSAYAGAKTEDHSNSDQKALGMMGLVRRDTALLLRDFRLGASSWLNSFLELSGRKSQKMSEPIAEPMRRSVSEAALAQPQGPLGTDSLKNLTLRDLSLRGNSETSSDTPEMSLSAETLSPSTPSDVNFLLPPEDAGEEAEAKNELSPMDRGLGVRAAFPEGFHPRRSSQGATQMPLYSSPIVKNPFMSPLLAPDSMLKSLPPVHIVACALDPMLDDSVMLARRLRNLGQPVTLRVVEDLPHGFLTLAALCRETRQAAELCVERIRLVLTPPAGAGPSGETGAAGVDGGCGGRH
# method-notes: Human Hormone-Sensitive Lipase (HSL) enzyme inhibition assay (colorimetric, DMPT substrate)
# setup-conditions: human full length HSL-His6, 2,3-dimercapto-1-propanol tributyrate substrate, 37° C. 20 minutes, absorbance at 405 nm; read-out: HSL hum IC50
readout-label: IC50

• O=C(NCc1cccc(F)c1)O[C@H]1CC[C@@]2(CCN(c3ccc(OC(F)(F)F)cc3)C2=O)CC1 = 60 nM
• COc1ccc(CCN2CC[C@]3(CC[C@H](O)CC3)C2=O)cc1 = 16500 nM
• O=C1N(c2ccc([C@@H](O)C(F)(F)F)cc2)CC[C@]12CC[C@@](O)(C1CC1)CC2 = 50 nM
• COCCCc1ccc(N2CC[C@]3(CC[C@@](O)(C(C)C)CC3)C2=O)cc1 = 50 nM
• CC(C)[C@]1(O)CC[C@@]2(CCN(c3ccc(OCC(F)(F)F)cc3)C2=O)CC1 = 2030 nM
• COCC#C[C@]1(O)CC[C@]2(CCN(c3ccc(OC(F)(F)F)cc3)C2=O)CC1 = 40 nM
• CCO[C@H]1CC[C@]2(CCN(c3ccc(OC(F)(F)F)cc3)C2=O)CC1 = 390 nM
• C[C@H](Oc1ccc(N2CC[C@]3(CC[C@](O)(COCC(F)(F)F)CC3)C2=O)cn1)C(F)(F)F = 980 nM
